Target: biotinylated human D-C5a (mirror-image C5a) (Homo sapiens) (UniProt P01031)
Sequence: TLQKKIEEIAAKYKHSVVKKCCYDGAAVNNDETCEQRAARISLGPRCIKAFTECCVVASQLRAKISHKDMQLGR
Experiment: pulldown
Settings: 37 C, 1 mM MgCl2, 1 mM CaCl2
pKd: −log10 of the molar value.
# binarize pKd: threshold 8 inclusive, high side Met, low side Not met

Please review the entries below; each comes with its answer.
| Chain | Answer Label |
| --- | --- |
| AGCGUGCUUGUCCGAUUGGCGGCACCCUUGCGGGACUGGGGAGUACGCU [172-D7-000] | Not met |
| GUGCUGGGUUCGGACGUGGCAUGUUCCUUGAUAAACGGUUGCCAGCAC [182-A8] | Met |
| GUGCUGCGUUCGGACGUGGCAUGUUCCUUGACAAACGGUUGGCAGCAC [182-C5] | Met |
| GCUGGGCGUGUUUACUUGCUUAAUAGGGGGCCCAGC [185-H3-001] | Met |

Exam item: decide whether the reported pKd for GUACUGCGUUCGGACGUGGCAUGUUCCUUGACAAACGGUUGGCAGUAC [182-E5] is at least 8.
Met

* * *

Molecular target: biotinylated human D-C5a (mirror-image C5a) (Homo sapiens)
Sequence: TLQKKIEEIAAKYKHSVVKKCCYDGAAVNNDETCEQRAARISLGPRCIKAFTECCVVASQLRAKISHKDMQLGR
Experiment: pulldown
Details: reference for type C ranking
Quantity Measured: Kd

Just so you know, measured Kd for GCUGAACACGCCGCGUAGGACCCAAUGGGUAGAAUGGGCAGC [179-A3-015] came out at > 7.2 nM

* * *

Molecular target: biotinylated human D-C5a (mirror-image C5a) (Homo sapiens)
Sequence: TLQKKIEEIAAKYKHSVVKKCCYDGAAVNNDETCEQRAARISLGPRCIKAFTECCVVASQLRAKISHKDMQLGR
Experiment: pulldown
Conditions: six base pair terminal helix
Quantity Measured: Kd (nM)
Field format: number, assumed nM, no unit text.

The recorded Kd for entry GUGCUUGUCCGAUUGGCGGCACCCUUGCGGGACUGGGGAGUAC [172-D7-002] equals 108

* * *

Molecular target: biotinylated human D-C5a (mirror-image C5a) (Homo sapiens)
Sequence: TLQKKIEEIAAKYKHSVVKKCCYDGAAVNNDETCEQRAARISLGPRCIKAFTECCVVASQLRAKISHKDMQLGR
Assay: pulldown
Conditions: U to C at 3' end of 5'-terminal stretch
Quantity Measured: Kd (nM)
Return type: number; implicit unit nM.

Form: sequence = AGCGUGCUCGUCCGAUUGGCGGCACCCUUGCGGGACUGGGGAGUACGCU [172-D7-003] ; Kd = 372
